# PROCEDURE_DETAILS: physchem
# TEST_CONTEXT: DMSO
OUTCOME_MEASURE: solubility (µM)
All answers are understood in µM, so give the number only.

Q: Query: solubility; subject: "CCCNC(=O)c1nnc2c(-c3ccccc3)cccc2c1N"
Ans: 9.5

Q: Query: solubility; subject: "COc1ccc(OC)c(-c2cccc3c(N)c(C(=O)NC4CC4)nnc23)c1"
Ans: 8.9

Q: Query: solubility; subject: "COc1ccc(OC)c(-c2cccc3c(N)c(C(=O)NC(C)C)nnc23)c1"
Ans: 4.7

Q: Query: solubility; subject: "CCNC(=O)c1nnc2c(-c3cc(OC)ccc3OC)cccc2c1N"
Ans: 8.2

Q: Query: solubility; subject: COc1ccc(OC)c(-c2cccc3c(N)c4c(nc23)CN(C2CC(C)C2)C4=O)c1 (centres undefined)
Ans: 0.9

Q: Query: solubility; subject: "CCCNC(=O)c1nnc2c(-c3cnc(OC)nc3OC)cccc2c1N"
Ans: 1.9

Q: Query: solubility; subject: "COc1ccc(OC)c(-c2cccc3c(N)c4c(nc23)CN(C2CCCC2)C4=O)c1"
Ans: 2.9

Q: Query: solubility; subject: "CCCNC(=O)c1nnc2c(-c3c(F)cccc3OC)cccc2c1N"
Ans: 7.6

Q: Query: solubility; subject: "CCNC(=O)c1nnc2c(-c3cc(OC)ccc3OC)c(F)ccc2c1N"
Ans: 5
